Test system: Pseudomonas aeruginosa Bin H No. 1
Type: cell-based
Conditions: Bin H No. 1, pH 7
Square brackets hold non-standard residues; d marks the D form. Peptide text beside a SMILES is read from it. 12Ado = NCCCCCCCCCCCC(=O)O; Aoc = NCCCCCCCC(=O)O; Ahx = NCCCCCC(=O)O
measurement.label: MIC (µg/ml) PA (µg/mL)
The answer is to be given in µg/mL; state only the numeric part.

// worked examples, MIC (µg/ml) PA included
CSCC[C@H](NC(=O)[C@H](CCCCN)NC(=O)[C@H](CCCNC(=N)N)NC(=O)[C@H](Cc1ccc(O)cc1)NC(=O)[C@H](CC(C)C)NC(C)=O)C(=O)N[C@@H](CCCNC(=N)N)C(=O)N[C@@H](CC(C)C)C(=O)N[C@@H](CCCNC(=N)N)C(=O)N[C@@H](Cc1ccc(O)cc1)C(=O)N1CCC[C@H]1C(=O)N[C@H](C(=O)NCCCCCC(N)=O)C(C)C [Compound (I-3)] (Ac-LYRKMRLRYPV[Ahx]-NH2) = 175
CSCC[C@H](NC(=O)[C@H](CCCCN)NC(=O)[C@H](CCCNC(=N)N)NC(=O)[C@H](Cc1ccc(O)cc1)NC(=O)[C@H](CC(C)C)NC(C)=O)C(=O)N[C@@H](CCCNC(=N)N)C(=O)N[C@@H](CC(C)C)C(=O)N[C@@H](CCCNC(=N)N)C(=O)N[C@@H](Cc1ccc(O)cc1)C(=O)N1CCC[C@H]1C(=O)N[C@H](C(=O)NCCCCCCCC(N)=O)C(C)C [Compound (I-5)] (Ac-LYRKMRLRYPV[Aoc]-NH2) = 163

Given the compound CSCC[C@H](NC(=O)[C@H](CCCCN)NC(=O)[C@H](CCCNC(=N)N)NC(=O)[C@H](Cc1ccc(O)cc1)NC(=O)[C@H](CC(C)C)NC(C)=O)C(=O)N[C@@H](CCCNC(=N)N)C(=O)N[C@@H](CC(C)C)C(=O)N[C@@H](CCCNC(=N)N)C(=O)N[C@@H](Cc1ccc(O)cc1)C(=O)N1CCC[C@H]1C(=O)N[C@H](C(=O)NCCCCCCCCCCCC(N)=O)C(C)C [Compound (I-7)] (Ac-LYRKMRLRYPV[12Ado]-NH2) , what is its reported MIC (µg/ml) PA? 150

Source of measurements: patent EP0760376A1
